B1: Zinc finger homeobox protein 3, residues 2643 to 2698; numbered along this chain, Q15911 (parent)
chain: RLRTTITPEQLEILYQKYLLDSNPTRKMLDHIAHEVGLKKRVVQVWFQNTRARERK

Variants of: B1
Assay: abundance fitness (aPCA) (normalised: wild type 0, dead -1); higher = more abundant; growth selection in yeast, the domain comes from the species named
Details: Homo sapiens
Decide by abundance fitness: equal to or exceeding -0.3 means yes, less means no.

variant spec | label
L20F | yes
T4D | yes
A33C | yes

Field: next variant
# check: abundance fitness of T25S is greater than or equal to -0.3
yes

Ref: the Human Domainome abundance scans (Beltran et al. 2025)
